Test system: MDA-MB-231 (breast cancer cells)
experiment: MTT cancer cell growth inhibition
Assay type: cell-based
condition.parameters: Homo sapiens, MDA-MB-231, 72 h, read-out: GI50 MDA-MB-231, MTT, 72 hours incubation, MDA-MB-231 cells
List of GI50 values.
Use nM as the unit, but write only the number.

Would you please look over these solved cases?
>>> observed_value("C/C=C1\\NC(=O)c2cc(F)cc(n2)CNC(=O)C[C@@H](/C=C/CCS)OC(=O)[C@H](CCCCN)NC1=O")
58
>>> observed_value("C/C=C1\\NC(=O)c2nc(ccc2SC)CNC(=O)C[C@@H](/C=C/CCSC(=O)CCCC)OC(=O)[C@H](C(C)C)NC1=O")
63

We now examine a further compound.
I'd like to know its GI50. The compound in question is `C/C=C1\NC(=O)c2cccc(n2)CNC(=O)C[C@@H](/C=C/CCSC(=O)CCCCCCC)OC(=O)[C@H](CC(C)C)NC1=O`
29

* * *

List of GI50 values.
System: HT1080 (human fibrosarcoma cells)
experiment: MTT cancer cell growth inhibition
Assay type: cell-based
condition.parameters: HT1080 cells, MTT, 72 hours incubation; read-out: GI50 HT1
Use µM as the unit, but write only the number.

Would you please look over these solved cases?
>>> observed_value("C/C=C1\\NC(=O)c2ccc(SC)c(n2)CNC(=O)C[C@@H](/C=C/CCSC(C)=O)OC(=O)[C@H](C(C)C)NC1=O [Compound 209]")
0.03
>>> observed_value("C/C=C1\\NC(=O)c2cc(SC)cc(n2)CNC(=O)C[C@@H](/C=C/CCSC(C)=O)OC(=O)[C@H](C)NC1=O [Compound 214]")
0.04

Report GI50 for C/C=C1\NC(=O)c2ncc(SC)c(n2)CNC(=O)C[C@@H](/C=C/CCSC(C)=O)OC(=O)[C@H](C(C)C)NC1=O [Compound 217] tested on HT1080 (human fibrosarcoma cells).
0.02

Report GI50 for C/C=C1\NC(=O)c2nc(ccc2SC)CNC(=O)C[C@@H](/C=C/CCSC(C)=O)OC(=O)[C@H](C)NC1=O [Compound 213] tested on HT1080 (human fibrosarcoma cells).
0.02

* * *

System: HCC827 (human non-small cell lung cancer cells)
experiment: MTT cancer cell growth inhibition
Format: cell-based
condition.parameters: Homo sapiens, HCC827, 72 h, MTT, 72 hours incubation, HCC827 cells; read-out: GI50 HCC827
Criterion: GI50 strictly under 50 nM. Met: satisfied. Not met: not satisfied.

Reference set (2 entries):
>>> qualitative_label("C/C=C1\\NC(=O)c2nc(ccc2SC)CNC(=O)C[C@@H](/C=C/CCSC(C)=O)OC(=O)[C@H](Cc2ccc(O)cc2)NC1=O")
"satisfied"
>>> qualitative_label("C/C=C1\\NC(=O)c2nc(ccc2SCC)CNC(=O)C[C@@H](/C=C/CCSC(=O)CCCCC)OC(=O)[C@H](C(C)C)NC1=O")
"satisfied"

I'd appreciate it if you could check whether `C/C=C1\NC(=O)c2cc(F)cc(n2)CNC(=O)C[C@@H](/C=C/CCS)OC(=O)[C@H](CC)NC1=O` has GI50 smaller than 50 nM.
not satisfied

* * *

Tested on: DU145 (human prostate cancer cells)
experiment: MTT cancer cell growth inhibition
Type: cell-based
condition.parameters: Homo sapiens, DU-145, 72 h, DU145 cells, MTT, 72 hours incubation; read-out: GI50 Du1
readout.type: GI50 (nM)
Use nM as the unit, but write only the number.

Would you please look over these solved cases?
>>> observed_value("C/C=C1\\NC(=O)c2ccc(SC)c(n2)CNC(=O)C[C@@H](/C=C/CCSC(=O)CCC)OC(=O)[C@H](C(C)C)NC1=O [Compound 161]")
20
>>> observed_value("C/C=C1\\NC(=O)c2cccc(n2)CNC(=O)C[C@@H](/C=C/CCSC(=O)CCCCCCC)OC(=O)[C@H](C(C)(C)C)NC1=O [Compound 237]")
40

We now examine a further compound.
Report GI50 for C/C=C1\NC(=O)c2nc(ccc2SC)CNC(=O)C[C@@H](/C=C/CCSC(C)=O)OC(=O)[C@H](CC)NC1=O [Compound 177] tested on DU145 (human prostate cancer cells).
60
